Test system: Human peripheral blood mononuclear cells
RUN_DESCRIPTION: Human Concanavalin-A Proliferation Assay (Con HU Assay)
Type: cell-based
TEST_CONDITIONS: Homo sapiens, PBMC, concanavalin-A stimulated human PBMC, tritiated thymidine
pIC50: −log10 of the molar value.
Catalogue of compounds with associated pIC50
ENDPOINT: pIC50

1) O=C(Nc1ccc(-n2nc(C(F)(F)F)cc2OC(F)F)cc1)c1ccncc1F [Example 327]
7.09
2) Cc1nnsc1C(=O)Nc1ccc(-n2nc(C(F)(F)F)cc2OC(F)F)cc1 [Example 323]
6.62
3) O=C(Nc1ccc(-n2nc(C(F)(F)F)cc2C(F)(F)F)nc1)c1ccccc1Cl [Example 260]
6.43
4) Cc1noc(C)c1C(=O)Nc1ccc(-n2nc(C(F)(F)F)cc2C(F)(F)F)cc1 [Example 266]
6.49
5) COC(=O)c1cc(NC(=O)c2cc(Br)ccc2Cl)ccc1-n1nc(C(F)(F)F)cc1C(F)(F)F [Example 274]
5.66
6) O=C(Nc1ccc(-n2nc(C(F)(F)F)cc2C(F)(F)F)cc1)c1cncc(Br)c1 [Example 256]
6.60
7) O=C(Nc1ccc(-n2nc(C(F)(F)F)cc2C(F)(F)F)cc1)c1cc(Cl)cnc1Cl [Example 270]
6.64
8) CC#CC(=O)Nc1ccc(-n2nc(C(F)(F)F)cc2C(F)(F)F)cc1 [Example 12]
6.37

###

System: IL-4
RUN_DESCRIPTION: Measurement of IL-4 Levels in Human T Cells (IL-4 Assay)
Format: cell-based
TEST_CONDITIONS: HuT78; Human T cells (HUT 78), phorbol 12-myristate 13-acetate and anti-CD3, 32 hours, ELISA; read-out: IL-4 Inhibition IC50
pIC50: −log10 of the molar value.
Each item that follows carries a reported pIC50.
ENDPOINT: pIC50

1. Cc1noc(C)c1C(=O)Nc1ccc(-n2nc(C(F)(F)F)cc2C(F)(F)F)cc1
6.96
2. O=C(Nc1ccc(-n2nc(C(F)(F)F)cc2C(F)(F)F)cc1)C1=CCCCC1
8.10
3. O=C(Nc1ccc(-n2nc(C(F)(F)F)cc2C(F)(F)F)cc1)c1cccc(F)c1F
8.30
4. O=C(Nc1ccc(-n2nc(C(F)(F)F)cc2C(F)(F)F)cc1)c1ccncc1F
8.32
5. C=CC[C@@H]1/C=C(\C)C[C@H](C)C[C@H](OC)[C@H]2O[C@@](O)(C(=O)C(=O)N3CCCC[C@H]3C(=O)O[C@H](/C(C)=C/[C@@H]3CC[C@@H](O)[C@H](OC)C3)[C@H](C)[C@@H](O)CC1=O)[C@H](C)C[C@@H]2OC [FK-506, tacrolimus, reference compound]
9.15

###

Listed next: entries and their corresponding pIC50.
Tested on: Human peripheral blood mononuclear cells
RUN_DESCRIPTION: Human Concanavalin-A Proliferation Assay (Con HU Assay)
Assay type: cell-based
TEST_CONDITIONS: Homo sapiens, PBMC, concanavalin-A stimulated human PBMC, tritiated thymidine
pIC50: −log10 of the molar value.
ENDPOINT: pIC50

1. O=C(Nc1ccc(-n2nc(C(F)(F)F)cc2C(F)(F)F)cc1)c1ccoc1
6.27
2. COc1cc(C(F)(F)F)nn1-c1ccc(NC(=O)c2ccncc2)cc1
6.53
3. Cc1c(C(=O)Nc2ccc(-n3nc(C(F)(F)F)cc3C(F)(F)F)cc2)cccc1[N+](=O)[O-]
6.56
4. O=C(Nc1ccc(-n2nc(C(F)(F)F)cc2C(F)(F)F)cc1)c1cccc(Br)c1
6.62
5. O=C(Nc1ccc(-n2nc(C(F)(F)F)cc2C(F)(F)F)cc1)Nc1ccc(Cl)cc1[N+](=O)[O-]
6.33
6. O=S(=O)(Nc1ccc(-n2nc(C(F)(F)F)cc2C(F)(F)F)cc1)c1cc(F)cc(F)c1
4.47
7. CCCCCc1ccc(C(=O)Nc2ccc(-n3nc(C(F)(F)F)cc3C(F)(F)F)cc2)c(=O)o1
4.54
8. O=C(Nc1ccc(-n2nc(C(F)(F)F)cc2C(F)(F)F)cc1)c1ccccc1I
6.50

###

ENDPOINT: melting point

1. CSc1cc(C(F)(F)F)nn1-c1ccc(NC(=O)c2cccnc2F)cc1 [Example 316]
167 to 168 °C
2. NS(=O)(=O)c1cccc(C(=O)Nc2ccc(-n3nc(C(F)(F)F)cc3C(F)(F)F)cc2)c1 [Example 141]
177 to 178 °C
3. COc1c(C(=O)Nc2ccc(-n3nc(C(F)(F)F)cc3C(F)(F)F)cc2)csc1Cl [Example 267]
119 to 120 °C
4. Cc1nnsc1C(=O)Nc1ccc(-n2nc(C(F)(F)F)cc2C)cc1 [Example 282]
51 to 53 °C
5. O=C(COc1ccccc1[N+](=O)[O-])Nc1ccc(-n2nc(C(F)(F)F)cc2C(F)(F)F)cc1 [Example 168]
170 to 173 °C
6. N#Cc1cc(C(F)(F)F)nn1-c1ccc(NC(=O)c2ccccc2Cl)cc1 [Example 350]
162 to 163 °C
7. O=C(Nc1ccc(-n2nc(C(F)(F)F)cc2C(F)(F)F)cc1)c1ccccc1 [Example 92]
177 to 178 °C
8. N#Cc1cc(C(F)(F)F)nn1-c1ccc(NC(=O)c2ccncc2Cl)cc1 [Example 351]
221 to 222 °C

###

Test system: Human peripheral blood mononuclear cells
RUN_DESCRIPTION: Human Concanavalin-A Proliferation Assay (Con HU Assay)
Type: cell-based
TEST_CONDITIONS: Homo sapiens, PBMC, concanavalin-A stimulated human PBMC, tritiated thymidine
ENDPOINT: IC50

1. Cc1nnsc1C(=O)Nc1ccc(-n2nc(-c3cccnc3)cc2C#N)cc1
220 nM
2. O=C(Nc1ccc(-n2nc(C(F)(F)F)cc2C(F)(F)F)cc1)c1cc(F)c(Cl)cc1F
154 nM
3. O=C(Nc1ccc(-n2nc(C(F)(F)F)cc2OC(F)F)cc1)c1cccc(F)c1F
75 nM
4. O=C(Nc1ccc(-n2nc(C(F)(F)F)nc2Cl)cc1)c1ccncc1F
1830 nM
5. O=C(Nc1ccc(-n2nc(C(F)(F)F)cc2C(F)(F)F)cc1)c1c(Cl)ccc([N+](=O)[O-])c1Cl
267 nM
6. O=C(Nc1ccc(-n2nc(C(F)(F)F)cc2C(F)(F)F)cc1)C1CCCCCC1
374 nM
7. CC1(C(=O)Nc2ccc(-n3nc(C(F)(F)F)cc3C(F)(F)F)cc2)CC1(Cl)Cl (centres unmarked)
328 nM
8. NC(=O)c1cccc(C(=O)Nc2ccc(-n3nc(C(F)(F)F)cc3C(F)(F)F)cc2)c1
364 nM

###

Tested on: Human peripheral blood mononuclear cells
RUN_DESCRIPTION: Human Concanavalin-A Proliferation Assay (Con HU Assay)
Assay type: cell-based
TEST_CONDITIONS: Homo sapiens, PBMC, concanavalin-A stimulated human PBMC, tritiated thymidine
pIC50: −log10 of the molar value.
Entries annotated with measured pIC50
ENDPOINT: pIC50

1) Cc1noc(C)c1C(=O)Nc1ccc(-n2nc(C(F)(F)F)cc2C(F)(F)F)c(Cl)c1 [Example 277]
5.97
2) O=C(Nc1ccc(-n2nc(C(F)(F)F)cc2C(F)(F)F)cc1)c1ccc(Cl)cc1F [Example 296]
7.36
3) O=C(Nc1ccc(-n2nc(C(F)(F)F)cc2Br)cc1)c1cccc(F)c1F [Example 348]
6.94
4) O=C(Nc1ccc(-n2nc(C(F)(F)F)cc2OC(F)F)cc1)c1ccccc1F [Example 352]
6.85
5) N#Cc1cccc(NC(=O)Nc2ccc(-n3nc(C(F)(F)F)cc3C(F)(F)F)cc2)c1 [Example 16]
5.38

###

Each item that follows carries a reported inhibition at 10 µM.
Tested on: Human peripheral blood mononuclear cells
RUN_DESCRIPTION: Human Concanavalin-A Proliferation Assay (Con HU Assay)
Format: cell-based
TEST_CONDITIONS: Homo sapiens, PBMC, 72 h, concentration 10 μm (in parentheses in the cell); concanavalin-A stimulated human PBMC, 3 days; read-out: % Inhibition of proliferation (at concentrations of 1,10, or 100 μm)
ENDPOINT: inhibition at 10 µM (%)

1. O=C(Nc1ccc(-n2nc(C(F)(F)F)cc2C(F)(F)F)cc1)c1c(Cl)ccc([N+](=O)[O-])c1Cl
100
2. CC#CC(=O)Nc1ccc(-n2nc(C(F)(F)F)cc2C(F)(F)F)cc1
98
3. O=C(Nc1ccc(-n2nc(C(F)(F)F)cc2C(F)(F)F)cc1)c1cc(Cl)ccc1Cl
99
4. Cc1nc(C)c(C(=O)Nc2ccc(-n3nc(C(F)(F)F)cc3C(F)(F)F)cc2)s1
100

###

Collected inhibition at 100 µM values appear next to each entry.
Test system: Human peripheral blood mononuclear cells
RUN_DESCRIPTION: Human Concanavalin-A Proliferation Assay (Con HU Assay)
Format: cell-based
TEST_CONDITIONS: Homo sapiens, PBMC, 72 h, concentration 100 μm (in parentheses in the cell); concanavalin-A stimulated human PBMC, 3 days; read-out: % Inhibition of proliferation (at concentrations of 1,10, or 100 μm)
ENDPOINT: inhibition at 100 µM (%)

1) O=C(Nc1ccc(-n2nc(C(F)(F)F)cc2C(F)(F)F)cc1)C1CC1c1ccccc1 (centres unmarked)
99
2) COc1cccc(C(=O)Nc2ccc(-n3nc(C(F)(F)F)cc3C(F)(F)F)cc2)c1
94
3) Cc1c(C(=O)Nc2ccc(-n3nc(C(F)(F)F)cc3C(F)(F)F)cc2)cccc1[N+](=O)[O-]
99
4) O=S(=O)(Nc1ccc(-n2nc(C(F)(F)F)cc2C(F)(F)F)cc1)c1cc(F)cc(F)c1
100
5) Cc1ccccc1C(=O)Nc1ccc(-n2nc(C(F)(F)F)cc2C(F)(F)F)cc1
99
6) COc1ccccc1C(=O)Nc1ccc(-n2nc(C(F)(F)F)cc2C(F)(F)F)cc1
100
7) O=C(Nc1ccc(F)cc1)Nc1ccc(-n2nc(C(F)(F)F)cc2C(F)(F)F)cc1
100
8) Cc1nnsc1C(=O)Nc1ccc(-n2nc(C(F)(F)F)cc2C)cc1
100

These measurements were taken from patent US20010044445A1.
